Below, each of the binders is paired with its reported IC50 of pseudovirus infection (luciferase) value.
measuredOn: spike protein of SARS-CoV-2 B.1.1.482 strain on pseudovirus (SARS-CoV-2 (B.1.1.482 strain))
protocolText: cell-based or functional assay
parameterMeasured: IC50 of pseudovirus infection (luciferase) (µg/mL)

binder	unitInfo	measValue
Ab864 (antibody, V domains shown) VH: EVQLVESGGGLVQPGRSLRLSCAASGFTFDDYAMHWVRQVPGKGLEWVSGISWNKGNIDYADSVKGRFTISRDNAKNSLYLQMNSLRPEDTGLYYCAKDCHYDSPGYFPNCLHSWGQGTLVTVSS VL: EIVMTQSPSSLSASVGDRVTITCRASQGINTYLAWYQQKPGKAPKLLIYTASTLQSGVPSRFSGSGSGTDFTLTISSLQPEDFATYYCQQVHSYPLTFGGGTKVEIK	µg/mL	0.0234
Ab847 (antibody, V domains shown) VH: EVQLVQSGAEVKKPGASVKVSCKASGYTFTSYDIIWVRQATGQGLEWMGWMDPSRGTTGYAQTFQGRVTMTRDTSISTAYLELNSLTSEDTAVYYCVAHIVVLDRWFDPWGQGTLVTVSS VL: DIVMTQSPSSLSASVGDRVTITCQASQDIGNFLNWCQQKPGQAPKVLIYGASNLETGVPSRFSGSGSGTDFTFTISSLQPEDIATYYCQHYDNFPPRFTFGQGTKLDIK	µg/mL	0.0548
Ab354 (antibody, V domains shown) VH: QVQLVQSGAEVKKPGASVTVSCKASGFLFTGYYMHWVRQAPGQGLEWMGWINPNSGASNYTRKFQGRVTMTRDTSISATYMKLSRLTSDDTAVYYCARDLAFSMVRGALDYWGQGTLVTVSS VL: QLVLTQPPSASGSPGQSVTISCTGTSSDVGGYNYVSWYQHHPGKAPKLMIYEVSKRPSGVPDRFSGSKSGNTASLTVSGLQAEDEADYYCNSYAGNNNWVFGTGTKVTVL	µg/mL	0.277
